Here the recorded EC50 is given for each entry.
- SYSTEM NAME: rat CB2 receptor (rCB2) (Rattus norvegicus, UniProt Q9QZN9)
- Sequence (Q9QZN9 1-360): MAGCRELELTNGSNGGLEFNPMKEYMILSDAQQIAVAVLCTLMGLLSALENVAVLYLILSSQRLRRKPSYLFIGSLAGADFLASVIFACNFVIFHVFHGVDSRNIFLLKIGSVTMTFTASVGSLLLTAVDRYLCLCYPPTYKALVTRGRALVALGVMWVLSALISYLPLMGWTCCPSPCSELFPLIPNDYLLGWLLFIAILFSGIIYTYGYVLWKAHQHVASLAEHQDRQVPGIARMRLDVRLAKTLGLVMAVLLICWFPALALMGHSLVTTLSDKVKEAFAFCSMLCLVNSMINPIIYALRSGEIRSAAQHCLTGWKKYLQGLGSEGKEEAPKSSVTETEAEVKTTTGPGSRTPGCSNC

- COMPOUND: "CNC(=O)[C@@H](NC(=O)c1nc(-c2ccsc2)n2c1CN(S(=O)(=O)c1ccc(F)cc1)CC2)C(C)(C)C [Compound 109]"
  SYSTEM NAME: "rat CB2 receptor (rCB2) (Rattus norvegicus, UniProt Q9QZN9)"
  EC50: "10 to 100 nM"
- COMPOUND: "CCN1CCn2c(-c3ccc(Cl)cc3)nc(C(=O)N[C@H](CO)C(C)(C)C)c2C1 [Compound 161]"
  SYSTEM NAME: "rat CB2 receptor (rCB2) (Rattus norvegicus, UniProt Q9QZN9)"
  EC50: "10 to 100 nM"
- COMPOUND: "CNC(=O)[C@@H](NC(=O)c1nc(-c2ccc(Cl)cc2F)n2c1CN(CC(C)C)CCC2)C(C)(C)C [Compound 322]"
  SYSTEM NAME: "rat CB2 receptor (rCB2) (Rattus norvegicus, UniProt Q9QZN9)"
  EC50: "10 to 100 nM"
- COMPOUND: "CC(C)CCNC(=O)c1nc(-c2ccc(Cl)cc2)n2c1CN(CC(C)C)CC2 [Compound 157]"
  SYSTEM NAME: "rat CB2 receptor (rCB2) (Rattus norvegicus, UniProt Q9QZN9)"
  EC50: "10 to 100 nM"
- COMPOUND: "CNC(=O)[C@@H](NC(=O)c1nc(-c2ccccc2)n2c1CN(CC(C)C)CC2)C(C)(C)C [Compound 148]"
  SYSTEM NAME: "rat CB2 receptor (rCB2) (Rattus norvegicus, UniProt Q9QZN9)"
  EC50: "10 to 100 nM"

API: the following record is the query input.
input: Quick one: EC50 of CNC(=O)[C@@H](NC(=O)c1nc(-c2ccc(C)cc2F)n2c1CN(C)CC2)C(C)(C)C [Compound 249] ?
output: 10 to 100 nM

----------
- SYSTEM NAME: human CB1 receptor (hCB1) (Homo sapiens, UniProt P21554)
- Sequence (P21554 whole entry): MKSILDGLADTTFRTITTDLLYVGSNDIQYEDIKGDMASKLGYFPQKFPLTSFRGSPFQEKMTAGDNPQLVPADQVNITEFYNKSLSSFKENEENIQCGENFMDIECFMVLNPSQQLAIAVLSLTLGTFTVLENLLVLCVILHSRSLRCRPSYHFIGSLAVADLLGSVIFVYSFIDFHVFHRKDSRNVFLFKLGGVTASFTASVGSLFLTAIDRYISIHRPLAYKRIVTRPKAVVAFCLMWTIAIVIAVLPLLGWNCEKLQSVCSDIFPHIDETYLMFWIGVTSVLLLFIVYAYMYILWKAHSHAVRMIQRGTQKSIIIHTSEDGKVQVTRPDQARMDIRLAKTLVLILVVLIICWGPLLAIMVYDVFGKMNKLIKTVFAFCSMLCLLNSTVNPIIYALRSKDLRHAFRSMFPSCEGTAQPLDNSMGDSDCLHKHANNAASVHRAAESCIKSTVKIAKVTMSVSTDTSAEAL
READOUT LABEL: EC50

Field: example entries. Status: answers known.
- COMPOUND: "CN1CCCn2c(-c3cc(F)c(F)cc3F)nc(C(=O)N3CCCCC3CN3CCOCC3)c2C1 (stereo not drawn)"
  SYSTEM NAME: "human CB1 receptor (hCB1) (Homo sapiens, UniProt P21554)"
  EC50: "> 10 µM"
- COMPOUND: "CN1CCCn2c(-c3cc(Cl)c(F)cc3F)nc(C(=O)N3CC(F)(F)C3)c2C1"
  SYSTEM NAME: "human CB1 receptor (hCB1) (Homo sapiens, UniProt P21554)"
  EC50: "> 10 µM"
- COMPOUND: "CNC(=O)[C@@H](NC(=O)c1nc(-c2cccnc2Cl)n2c1CN(C)CCC2)C(C)(C)C"
  SYSTEM NAME: "human CB1 receptor (hCB1) (Homo sapiens, UniProt P21554)"
  EC50: "> 10 µM"
- COMPOUND: "CNC(=O)[C@@H]1CCN(C(=O)c2nc(-c3cc(Cl)c(F)cc3F)n3c2CN(C)CCC3)C1"
  SYSTEM NAME: "human CB1 receptor (hCB1) (Homo sapiens, UniProt P21554)"
  EC50: "> 10 µM"
- COMPOUND: "CC1CCN(CC(C)(C)NC(=O)c2nc(-c3cc(Cl)c(F)cc3F)n3c2CN(C)CCC3)CC1"
  SYSTEM NAME: "human CB1 receptor (hCB1) (Homo sapiens, UniProt P21554)"
  EC50: "> 10 µM"
- COMPOUND: "CNC(=O)[C@@H](NC(=O)c1nc(-c2ccccc2N)n2c1CN(C)CCC2)C(C)(C)C"
  SYSTEM NAME: "human CB1 receptor (hCB1) (Homo sapiens, UniProt P21554)"
  EC50: "> 10 µM"
- COMPOUND: "CNC(=O)[C@@H](NC(=O)c1nc(C2CCN(S(=O)(=O)C(C)C)CC2)n2c1CN(C)CCC2)C(C)(C)C"
  SYSTEM NAME: "human CB1 receptor (hCB1) (Homo sapiens, UniProt P21554)"
  EC50: "> 10 µM"
- COMPOUND: "CNC(=O)[C@@H](NC(=O)c1nc(C2=CCCCO2)n2c1CN(C)CCC2)C(C)(C)C"
  SYSTEM NAME: "human CB1 receptor (hCB1) (Homo sapiens, UniProt P21554)"
  EC50: "> 10 µM"
- COMPOUND: "CNC(=O)[C@@H](NC(=O)c1nc(-c2cnccc2Cl)n2c1CN(C)CCC2)C(C)(C)C"
  SYSTEM NAME: "human CB1 receptor (hCB1) (Homo sapiens, UniProt P21554)"
  EC50: "> 10 µM"
- COMPOUND: "CN1CCCn2c(-c3cc(F)c(F)cc3F)nc(C(=O)N3CCC4(CCN(C)C4=O)CC3)c2C1"
  SYSTEM NAME: "human CB1 receptor (hCB1) (Homo sapiens, UniProt P21554)"
  EC50: "> 10 µM"

input: Record request: EC50 value, item CC1CN(C(=O)c2nc(-c3cc(F)c(F)cc3F)n3c2CN(C)CCC3)CC(C)O1 (stereo not drawn)
output: > 10 µM

input: Quick one: EC50 of CC(C)(C)[C@H](NC(=O)c1nc(-c2ccccc2)n2c1CNCC2)C(=O)NCCF ?
output: > 10 µM

input: Suppose we examine the compound CN1CCCn2c(-c3cc(Cl)ccc3F)nc(C(=O)N[C@H](C(=O)N[C@H]3CCC[C@H]3O)C(C)(C)C)c2C1 ; what EC50 value has been reported?
output: > 10 µM

input: Reported EC50, compound CN1CCCn2c(-c3cc(Cl)c(F)cc3F)nc(C(=O)N3CCC(F)(F)C3)c2C1 : ____
output: > 10 µM

input: Tell me the measured EC50 of CNC(=O)[C@@H](NC(=O)c1nc(-c2ccc(OC(C)C)cc2)n2c1CN(C)CCC2)C(C)(C)C , please.
output: > 10 µM

// data source = patent US8431565B2
